Tested on: HCC1569;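 also: TDF denotes transformed human dermal fibroblasts of mesenchymal origin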
Assay overview: cell number relative to DMSO (% of DMSO); higher = more cells (less growth inhibition / toxicity)
Condition set: concentration: 10 µM; 24 h
Parameter measured: cell number
// keep it numeric: no unit symbol after the value

The examples below pair each entry with its known result.
Exercise: Give reported cell number value for `COc1ccccc1CN[C@H]1C2CCN(CC2)[C@H]1C(c1ccccc1)c1ccccc1`
Solution: 95.3

Exercise: Give reported cell number value for Cl.NCCc1ccc(S(=O)(=O)F)cc1 [4-(2-Aminoethyl)benzenesulfonyl fluoride hydrochloride]
Solution: 100

Exercise: Give reported cell number value for CC(C)C1C(=O)OC2CCN3CC=C(COC(=O)C(C)(O)C1(C)O)C23 (centres undefined)
Solution: 99.6

Further cases:
Exercise: Give reported cell number value for CC(=O)OC1C2C(OC(=O)Cc3ccccc3)C(C)CC2(OC(C)=O)C(=O)C(C)=CC2C(CCC13CO3)C2(C)C (centres undefined)
Solution: 102

Entry source: the supplement of paper PMC7156485
